Data credit: paper PMC9482650

assayedSystem: MAGI2_6, Q86UL8
Sequence (Q86UL8 1141-1229): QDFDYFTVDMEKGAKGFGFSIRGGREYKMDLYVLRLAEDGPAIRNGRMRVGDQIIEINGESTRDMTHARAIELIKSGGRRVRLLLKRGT
protocolSummary: holdup assay
Design: key: below the threshold = too weak to quantify, mostly under pKd 3.1 to 4
assayContext: plain residues with an end cap or a label only (N-terminal biotin on a linker: ahx)
parameterMeasured: pKd

| binder | observed |
| --- | --- |
| KEYDDELTFF [USH1C, Q9Y6N9] | below the threshold |
| SKKNELFSNL [NHERF1, O14745] | below the threshold |
| SAPATLSSRA [PDLIM2, Q96JY6] | below the threshold |
